Tested on: RXF 393
Assay: NCI one-dose SRB growth assay
Format: cell-based
Conditions: Homo sapiens; RXF 393 (Renal Cancer), 10^-5 M, 48 h; read-out: % Growth Inhibition (GI %)
recorded endpoint: inhibition at 10 µM (%)

# compound, test system, recorded endpoint, readout unit, reported value
data = [
    ("CCn1cc(C(=O)O)c(=O)c2cc(F)c(N3CCN(S(=O)(=O)c4ccc(Cl)cc4Cl)CC3)cc21", "RXF 393", "inhibition at 10 µM", "%", 72.1),
    ("CCn1cc(C(=O)O)c(=O)c2cc(F)c(N3CCN(S(=O)(=O)c4ccc(Cl)cc4)CC3)cc21", "RXF 393", "inhibition at 10 µM", "%", 86.6),
    ("Cc1cc(C)c(S(=O)(=O)N2CCN(c3cc4c(cc3F)c(=O)c(C(=O)O)cn4C3CC3)CC2)c(C)c1", "RXF 393", "inhibition at 10 µM", "%", 48.7),
    ("O=C(O)c1cn(C2CC2)c2cc(N3CCN(S(=O)(=O)c4ccc(Cl)cc4Cl)CC3)c(F)cc2c1=O", "RXF 393", "inhibition at 10 µM", "%", 67.7),
    ("CCn1cc(C(=O)O)c(=O)c2cc(F)c(N3CCN(S(=O)(=O)c4cccc5ccccc45)CC3)cc21", "RXF 393", "inhibition at 10 µM", "%", 71),
    ("O=C(O)c1cn(C2CC2)c2cc(N3CCN(S(=O)(=O)c4ccc(Cl)c(Cl)c4)CC3)c(F)cc2c1=O", "RXF 393", "inhibition at 10 µM", "%", 71),
    ("CCn1cc(C(=O)O)c(=O)c2cc(F)c(N3CCN(S(=O)(=O)c4c(C)cc(C)cc4C)CC3)cc21", "RXF 393", "inhibition at 10 µM", "%", 11.1),
    ("O=c1[nH]cc(F)c(=O)[nH]1 [Compound 5-FU, 5-fluorouracil, reference compound]", "RXF 393", "inhibition at 10 µM", "%", 34.3),
]

* * *

The entries below are paired with their reported inhibition at 10 µM.
Test system: SN12C
Experiment: NCI one-dose SRB growth assay
Assay type: cell-based
Conditions: Homo sapiens; SN12C (Renal Cancer), 10^-5 M, 48 h; read-out: % Growth Inhibition (GI %)

# compound, inhibition at 10 µM / %
data = [
    ("O=C(O)c1cn(C2CC2)c2cc(N3CCN(S(=O)(=O)c4ccc(Cl)cc4Cl)CC3)c(F)cc2c1=O [Compound 2b]", 13.8),
    ("CCn1cc(C(=O)O)c(=O)c2cc(F)c(N3CCN(S(=O)(=O)c4cccc5ccccc45)CC3)cc21 [Compound 7a]", 88.1),
    ("O=c1[nH]cc(F)c(=O)[nH]1 [Compound 5-FU, 5-fluorouracil, reference compound]", 54),
    ("O=C(O)c1cn(C2CC2)c2cc(N3CCN(S(=O)(=O)c4ccc(Cl)c(Cl)c4)CC3)c(F)cc2c1=O [Compound 3b]", 89.6),
    ("CCn1cc(C(=O)O)c(=O)c2cc(F)c(N3CCN(S(=O)(=O)c4ccc(Cl)cc4)CC3)cc21 [Compound 1a]", 88.4),
    ("CCn1cc(C(=O)O)c(=O)c2cc(F)c(N3CCN(S(=O)(=O)c4ccc(Cl)cc4Cl)CC3)cc21 [Compound 2a]", 89.7),
    ("Cc1cc(C)c(S(=O)(=O)N2CCN(c3cc4c(cc3F)c(=O)c(C(=O)O)cn4C3CC3)CC2)c(C)c1 [Compound 6b]", 86.1),
    ("CCn1cc(C(=O)O)c(=O)c2cc(F)c(N3CCN(S(=O)(=O)c4c(C)cc(C)cc4C)CC3)cc21 [Compound 6a]", 11.5),
]

* * *

Tested on: OVCAR-3

# compound, GI50, µM
rows = [
    ("CCn1cc(C(=O)O)c(=O)c2cc(F)c(N3CCN(S(=O)(=O)c4ccc(Cl)cc4Cl)CC3)cc21 [Compound 2a]", 2.54),
    ("CCn1cc(C(=O)O)c(=O)c2cc(F)c(N3CCN(S(=O)(=O)c4cccc5ccccc45)CC3)cc21 [Compound 7a]", 3.69),
    ("CCn1cc(C(=O)O)c(=O)c2cc(F)c(N3CCN(S(=O)(=O)c4ccc(Cl)cc4)CC3)cc21 [Compound 1a]", 3.51),
    ("Cc1cc(C)c(S(=O)(=O)N2CCN(c3cc4c(cc3F)c(=O)c(C(=O)O)cn4C3CC3)CC2)c(C)c1 [Compound 6b]", 3.17),
    ("O=C(O)c1cn(C2CC2)c2cc(N3CCN(S(=O)(=O)c4ccc(Cl)c(Cl)c4)CC3)c(F)cc2c1=O [Compound 3b]", 3.9),
]

* * *

Measured inhibition at 10 µM accompanies every entry in the list below.
Test system: OVCAR-3
Test: NCI one-dose SRB growth assay
Type: cell-based
Details: Homo sapiens; OVCAR-3 (Ovarian Cancer), 10^-5 M, 48 h; read-out: % Growth Inhibition (GI %)
recorded endpoint: inhibition at 10 µM (%)

# compound, recorded endpoint, bound operator, reported value
data = [
    ("CCn1cc(C(=O)O)c(=O)c2cc(F)c(N3CCN(S(=O)(=O)c4ccc(Cl)cc4)CC3)cc21 [Compound 1a]", "inhibition at 10 µM", "=", 71.8),
    ("CCn1cc(C(=O)O)c(=O)c2cc(F)c(N3CCN(S(=O)(=O)c4c(C)cc(C)cc4C)CC3)cc21 [Compound 6a]", "inhibition at 10 µM", "=", 10.8),
    ("O=C(O)c1cn(C2CC2)c2cc(N3CCN(S(=O)(=O)c4ccc(Cl)cc4Cl)CC3)c(F)cc2c1=O [Compound 2b]", "inhibition at 10 µM", "<", 10),
    ("CCn1cc(C(=O)O)c(=O)c2cc(F)c(N3CCN(S(=O)(=O)c4ccc(Cl)cc4Cl)CC3)cc21 [Compound 2a]", "inhibition at 10 µM", "=", 92.1),
    ("CCn1cc(C(=O)O)c(=O)c2cc(F)c(N3CCN(S(=O)(=O)c4cccc5ccccc45)CC3)cc21 [Compound 7a]", "inhibition at 10 µM", ">", 100),
    ("O=c1[nH]cc(F)c(=O)[nH]1 [Compound 5-FU, 5-fluorouracil, reference compound]", "inhibition at 10 µM", "=", 47.4),
    ("O=C(O)c1cn(C2CC2)c2cc(N3CCN(S(=O)(=O)c4ccc(Cl)c(Cl)c4)CC3)c(F)cc2c1=O [Compound 3b]", "inhibition at 10 µM", "=", 90.1),
    ("Cc1cc(C)c(S(=O)(=O)N2CCN(c3cc4c(cc3F)c(=O)c(C(=O)O)cn4C3CC3)CC2)c(C)c1 [Compound 6b]", "inhibition at 10 µM", "<", 10),
]

* * *

System: T-47D
Test: NCI one-dose SRB growth assay
Type: cell-based
Details: Homo sapiens, T47D; T-47D (Breast Cancer), 10^-5 M, 48 h; read-out: % Growth Inhibition (GI %)
Threshold check on inhibition at 10 µM: at or above 60% gives True, strictly below gives False.

# molecule, assigned class
rows = [
    ("O=c1[nH]cc(F)c(=O)[nH]1 [Compound 5-FU, 5-fluorouracil, reference compound]", "False"),
    ("CCn1cc(C(=O)O)c(=O)c2cc(F)c(N3CCN(S(=O)(=O)c4c(C)cc(C)cc4C)CC3)cc21", "False"),
    ("Cc1cc(C)c(S(=O)(=O)N2CCN(c3cc4c(cc3F)c(=O)c(C(=O)O)cn4C3CC3)CC2)c(C)c1", "False"),
    ("O=C(O)c1cn(C2CC2)c2cc(N3CCN(S(=O)(=O)c4ccc(Cl)cc4Cl)CC3)c(F)cc2c1=O", "False"),
    ("O=C(O)c1cn(C2CC2)c2cc(N3CCN(S(=O)(=O)c4ccc(Cl)c(Cl)c4)CC3)c(F)cc2c1=O", "True"),
    ("CCn1cc(C(=O)O)c(=O)c2cc(F)c(N3CCN(S(=O)(=O)c4ccc(Cl)cc4Cl)CC3)cc21", "True"),
    ("CCn1cc(C(=O)O)c(=O)c2cc(F)c(N3CCN(S(=O)(=O)c4cccc5ccccc45)CC3)cc21", "True"),
]

* * *

System: SK-OV-3
Assay: NCI one-dose SRB growth assay
Format: cell-based
Conditions: Homo sapiens; SK-OV-3 (Ovarian Cancer), 10^-5 M, 48 h; read-out: % Growth Inhibition (GI %)
Recorded measurements of inhibition at 10 µM, one per entry
recorded endpoint: inhibition at 10 µM (%)

# compound, readout unit, bound operator, reported value
measured = [
    ("CCn1cc(C(=O)O)c(=O)c2cc(F)c(N3CCN(S(=O)(=O)c4cccc5ccccc45)CC3)cc21 [Compound 7a]", "%", "=", 84.4),
    ("O=C(O)c1cn(C2CC2)c2cc(N3CCN(S(=O)(=O)c4ccc(Cl)c(Cl)c4)CC3)c(F)cc2c1=O [Compound 3b]", "%", "=", 73.2),
    ("CCn1cc(C(=O)O)c(=O)c2cc(F)c(N3CCN(S(=O)(=O)c4ccc(Cl)cc4)CC3)cc21 [Compound 1a]", "%", "=", 59.2),
    ("O=C(O)c1cn(C2CC2)c2cc(N3CCN(S(=O)(=O)c4ccc(Cl)cc4Cl)CC3)c(F)cc2c1=O [Compound 2b]", "%", "<", 10),
]
